biological target: LXRα full length (FL) (Homo sapiens, UniProt Q13133); construct: the full length (FL) proteins of LXRα (amino acids 1-447); NP005684; assay: LXR Gal4 reporter transient transfection assay (M2H), Gal4α FL; settings: HEK293 cells; read-out: M2H Gal4α FL activity range (EC50)
Sequence (Q13133 whole entry, the tested form may be a part): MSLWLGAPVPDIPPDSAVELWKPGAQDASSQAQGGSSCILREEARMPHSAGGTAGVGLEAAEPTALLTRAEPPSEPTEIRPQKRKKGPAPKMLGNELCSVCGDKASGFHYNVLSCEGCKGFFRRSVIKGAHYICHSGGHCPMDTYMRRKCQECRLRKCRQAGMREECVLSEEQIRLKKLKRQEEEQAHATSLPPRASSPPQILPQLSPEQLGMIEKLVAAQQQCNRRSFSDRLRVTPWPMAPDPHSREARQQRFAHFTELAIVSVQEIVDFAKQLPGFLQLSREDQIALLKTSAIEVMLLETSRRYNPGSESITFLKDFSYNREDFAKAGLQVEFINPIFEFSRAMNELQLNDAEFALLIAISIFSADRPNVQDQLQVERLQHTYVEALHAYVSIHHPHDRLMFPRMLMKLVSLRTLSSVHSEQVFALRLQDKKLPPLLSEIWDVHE
pEC50: −log10 of the molar value.
ASSAY METRIC: pEC50

>>> obs_value("Cc1cc(C)c(S(=O)(=O)N(Cc2ccc(-c3cccc(S(=O)(=O)CC(=O)O)c3)cc2)Cc2cccc(OC(F)F)c2)c(C)c1")
"5.00 to 6.00"
>>> obs_value("Cc1cc(C)c(S(=O)(=O)N(Cc2ccc(-c3cccc(S(=O)(=O)CC(=O)O)c3)cc2)Cc2cncc(C(F)(F)F)c2)c(C)c1")
"5.00 to 6.00"
>>> obs_value("Cc1ccc2ccccc2c1S(=O)(=O)N(Cc1ccc(C(F)(F)F)o1)C1COc2cc(-c3cccc(C(C)(C)C(=O)O)c3)ccc21 (stereo not shown)")
"> 7.00"

// moving on: another record for pEC50
input: Endpoint output: pEC50 of COc1cc(C)cc(C)c1S(=O)(=O)N(Cc1ccc(-c2cccc(S(=O)(=O)CC(=O)O)c2)cc1)Cc1ccc(C(F)(F)F)o1 . Value?
output: 5.00 to 6.00
